Data credit: patent US20240270821A1

For each entry below, report its EC50 value.
TESTED_ON: hGLP-1R (Homo sapiens, UniProt P43220)
Sequence (P43220 24-463): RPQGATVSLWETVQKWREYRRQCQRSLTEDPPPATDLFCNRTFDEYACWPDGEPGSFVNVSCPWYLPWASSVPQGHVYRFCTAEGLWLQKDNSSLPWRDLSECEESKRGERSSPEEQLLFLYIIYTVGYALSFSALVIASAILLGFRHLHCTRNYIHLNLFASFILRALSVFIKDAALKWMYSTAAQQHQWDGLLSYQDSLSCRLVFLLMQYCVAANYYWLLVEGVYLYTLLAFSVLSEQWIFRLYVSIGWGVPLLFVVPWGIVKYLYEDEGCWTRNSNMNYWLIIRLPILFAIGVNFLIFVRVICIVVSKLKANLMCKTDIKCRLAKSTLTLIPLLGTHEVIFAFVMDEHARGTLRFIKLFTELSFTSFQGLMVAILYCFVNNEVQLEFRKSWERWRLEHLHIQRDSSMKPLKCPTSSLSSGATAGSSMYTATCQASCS
RUN_DESCRIPTION: Functional cAMP activation in the presence of 0.1% casein (no HSA);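 also: intracellular cAMP rise after 30 min at 37 °C read by HTRF, normalized between buffer only (0%) and maximal control ligand (100%), four-parameter variable-slope fit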
Format: cell-based
CONDITION_DETAILS: read-out: Relative cAMP EC50, hGLP-1R
Starred links: 1 amine or outer side, 2 acyl side, 3 side chain; linkers in the order of their positions; H or OH if unused. Non-standard residues stand in square brackets, D forms with d. Groups on a side chain read outwards from the residue. No end group written: not given here. *: point of attachment. C18 diacid = O=C(O)CCCCCCCCCCCCCCCCC(=O)*; αMePhe(2-F) = C[C@](N)(Cc1ccccc1F)C(=O)O; γGlu = O=C(O)[C@H](CCC(=O)[*:2])N[*:1]; αMe4Pal = C[C@](N)(Cc1ccncc1)C(=O)O; αMeY = C[C@](N)(Cc1ccc(O)cc1)C(=O)O; 4Pal = N[C@@H](Cc1ccncc1)C(=O)O; αMeL = CC(C)C[C@](C)(N)C(=O)O; αMeS = C[C@](N)(CO)C(=O)O; Orn = NCCC[C@H](N)C(=O)O; AEEA = NCCOCCOCC(=O)O; Aib = CC(C)(N)C(=O)O
Please respond with the number in nM and leave the unit unwritten.

Measured EC50, Y[Aib]QGT[αMePhe(2-F)]TSD[4Pal][αMeS]I[αMeL]LD[Orn]K([γGlu-γGlu-C18 diacid])AQ[Aib][Orn]FI[dE][αMeY]LQEGGPSSGEPPPEGAEE-NH2 [Example 587] : 0.611

For record H-Y[Aib]QGT[αMePhe(2-F)]TSD[4Pal][αMeS]I[αMeL]LD[Orn]K([γGlu-γGlu-C18 diacid])AQ[Aib][Orn]FI[dE][αMeY]LTEGGPSSGEPPPEGTEEE-NH2 [Example 598] the listed EC50 is 0.886

Recorded result, H-Y[Aib]QGT[αMePhe(2-F)]TSD[4Pal]SILLDKK([γGlu-γGlu-C18 diacid])AQ[Aib]AFIEYLTEGGPSSGAPPPSGTE-NH2 [Example 554] , EC50: 0.423

Entry H-Y[Aib]QGT[αMePhe(2-F)]TSD[4Pal][αMeS]ILLD[Orn]K([γGlu-γGlu-C18 diacid])AQ[Aib][Orn]FI[dE]YLIEGGPSSGEPPPSGTGE-NH2 [Example 548] ; EC50 = 0.478

The recorded EC50 for entry H-Y[Aib]QGT[αMePhe(2-F)]TSD[4Pal][αMeS]ILLD[Orn]K([γGlu-γGlu-C18 diacid])AQ[Aib][Orn]FI[dE][αMeY]LQEGGPSSGEPPPEGAEE-NH2 [Example 574] equals 0.499

Recorded result, H-Y[Aib]QGT[αMePhe(2-F)]TSD[4Pal][αMeS]I[αMeL]LD[Orn]K([γGlu-Glu-C18 diacid])AQ[Aib][Orn]FI[dE][αMeY]LSEGGPSSGEPPPSGTEE-NH2 [Example 566] , EC50: 1.3

Lookup result for H-Y[Aib]QGT[αMePhe(2-F)]TSD[4Pal]SI[αMeL]LD[Orn]K([AEEA-γGlu-C18 diacid])AQ[αMe4Pal][Orn]FI[dE][αMeY]LIEGGPSSGEPPPEEG-NH2 [Example 475] ; measured EC50: 0.254

Reported EC50 for H-Y[Aib]QGT[αMePhe(2-F)]TSD[4Pal][αMeS]I[αMeL]LD[Orn]K([γGlu-γGlu-C18 diacid])AQ[Aib][Orn]FI[dE][αMeY]LSEGGPSSGEPPPSGTE-NH2 [Example 517] was 0.646

The substance listed as Y[Aib]QGT[αMePhe(2-F)]TSD[4Pal][αMeS]I[αMeL]LD[Orn]K([γGlu-γGlu-C18 diacid])AQ[Aib]NFI[dE][αMeY]LQEGGPSSGEPPPEGTE-NH2 [Example 526] has a reported EC50 of 0.421

Please fill in: EC50 reported for Y[Aib]QGT[αMePhe(2-F)]TSD[4Pal][αMeS]I[αMeL]LD[Orn]K([AEEA-γGlu-C18 diacid])AQ[αMe4Pal]EFI[dE][αMeY]LIEGGPSSGEPPPEGTGE-NH2 [Example 763] = 0.302

response.value for H-Y[Aib]QGT[αMePhe(2-F)]TSD[4Pal][αMeS]I[αMeL]LD[Orn]K([γGlu-γGlu-C18 diacid])AA[Aib]EFI[dE][αMeY]LVEGGPSSGEPPPSGS-NH2 [Example 695] (field: EC50) = 0.254

For record Y[Aib]QGT[αMePhe(2-F)]TSD[4Pal]SILLDKK([γGlu-γGlu-C18 diacid])AQ[Aib]AFIEYLQEGGPSSGAPPPSGTEE-NH2 [Example 580] the listed EC50 is 0.615

Summary for this substance, Y[Aib]QGT[αMePhe(2-F)]TSD[4Pal][αMeS]I[αMeL]LD[Orn]K([γGlu-γGlu-C18 diacid])AQ[αMe4Pal]EFI[dE][αMeY]LIEGGPSSGEPPPEGGGE-NH2 [Example 762] : EC50 is 0.273

For record H-Y[Aib]QGT[αMePhe(2-F)]TSD[4Pal]SILLD[Orn]K([γGlu-γGlu-C18 diacid])AQ[Aib][Orn]FIE[αMeY]LEEGGPSSGAPPPSGTGE-NH2 [Example 674] the listed EC50 is 0.21

Just so you know, measured EC50 for H-Y[Aib]QGT[αMePhe(2-F)]TSD[4Pal][αMeS]I[αMeL]LD[Orn]K([γGlu-γGlu-C18 diacid])AQ[Aib][Orn]FI[dE][αMeY]LSEGGPSSGEPPPSGTEE-NH2 [Example 561] came out at 1.13

# substance H-Y[Aib]QGT[αMePhe(2-F)]TSD[4Pal]SILLDKK([γGlu-γGlu-C18 diacid])AQ[Aib]AFIEYLEEGGPSSGAPPPSGTEE-NH2 [Example 609] ; its EC50 = 1.07

Lookup result for H-Y[Aib]QGT[αMePhe(2-F)]TSD[4Pal]SI[αMeL]LD[Orn]K([AEEA-γGlu-C18 diacid])AQ[Aib][Orn]FIEYLLEGGPSSGEPPPEEG-NH2 [Example 494] ; measured EC50: 0.211

Sure, the documented EC50 for H-Y[Aib]QGT[αMePhe(2-F)]TSD[4Pal]SILLDKK([γGlu-γGlu-C18 diacid])AQ[Aib]AFIE[αMeY]LEEGGPSSGAPPPSGTE-NH2 [Example 551] is 0.303

Value of EC50 reported for the substance H-Y[Aib]QGT[αMePhe(2-F)]TSD[4Pal][αMeS]I[αMeL]LD[Orn]K([γGlu-γGlu-C18 diacid])AQ[αMe4Pal]EFI[dE][αMeY]LVEGGPSSGEPPPSGTGE-NH2 [Example 738] is 0.368

Query Y[Aib]QGT[αMePhe(2-F)]TSD[4Pal][αMeS]ILLD[Orn]K([γGlu-γGlu-C18 diacid])AQ[Aib][Orn]FI[dE]YLIEGGPSSGEPPPEGGEE-NH2 [Example 605] yields EC50 of 0.795
